Kindly state ACE2 binding (no antibody = 100) for each of the entries shown.
molecular target: T1, full-length spike protein of SARS-CoV-2 (Wuhan strain) (SARS-CoV-2 (Wuhan strain), UniProt P0DTC2 14-1273); assay: ACE2 competition, 293T cells, antibody 4 µg/mL
T1 construct: whole, on cells; Expressed in 293T cells
Could you keep your reply to the number by itself?

The recorded ACE2 binding (no antibody = 100) for Ab336 (antibody, V domains shown) VH: QVQLQQSGPGLVKPSETLSLTCTVSGGSISSYYWTWIRQPPGKGLEWIAYISYSGSTNYNPSLRSRVTISVDTSKNQFSLKLSSVTAADTAVYYCARDYYYDNSGYPDSYYGMDVWGQGTTVTVSS VL: DIQLTQSPSTLSASVGDRVTITCRASQRISSWLAWYQQKPGKAPKLLIYKASTLQSGVPSRFSGSGSGTEFTLTISSLQPDDFATYYCQQYNSFSWTFGQGTKVEIK is 1

The recorded ACE2 binding (no antibody = 100) for Ab354 (antibody, V domains shown) VH: QVQLVQSGAEVKKPGASVTVSCKASGFLFTGYYMHWVRQAPGQGLEWMGWINPNSGASNYTRKFQGRVTMTRDTSISATYMKLSRLTSDDTAVYYCARDLAFSMVRGALDYWGQGTLVTVSS VL: QLVLTQPPSASGSPGQSVTISCTGTSSDVGGYNYVSWYQHHPGKAPKLMIYEVSKRPSGVPDRFSGSKSGNTASLTVSGLQAEDEADYYCNSYAGNNNWVFGTGTKVTVL is 0.3

The recorded ACE2 binding (no antibody = 100) for Ab496 (antibody, V domains shown) VH: EVQLVQSGPEVKKPGTSVKVSCKASGFIFTNSAVQWVRQARGQRLEWIGWIVVGSGNPNYAQKFQERVTITRDRSTSTAYMELSSLTSEDTAVYYCAAFPYYYDNSGSGPWGQGTLVTVSS VL: DIQLTQSPSSLSASVGDRVTITCQASQDIRNNLNWYQQIPGKAPKLLIYDASNLETGVPSRFSGSASGTDFTFTISSLQPEDVATYYCQQYANLPPFTFGPGTKVDIK is 1.8

src = patent US20230348573A1
